Source listed as patent US20250368649A1.

Biological target: KRas G12C (Homo sapiens, UniProt P01116, G12C)
Sequence (P01116 1-169 isoform P01116-2 G12C): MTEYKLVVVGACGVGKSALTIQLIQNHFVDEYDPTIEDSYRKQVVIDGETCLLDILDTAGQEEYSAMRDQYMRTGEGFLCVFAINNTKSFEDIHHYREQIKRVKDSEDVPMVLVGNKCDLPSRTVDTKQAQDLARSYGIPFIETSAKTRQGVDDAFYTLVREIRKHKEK
Format: binding
Conditions: single point, 10 nM compound, read-out: Binding to KRas (% inhibition at 10 nM) G12C
ATTRIBUTE_MEASURED: inhibition at 0.01 µM (%)

compound="CCc1c(F)ccc2cc(O)cc(N3CCc4c(nc(OC[C@@]56CCCN5C[C@H](F)C6)nc4N4Cc5cn(C(=O)N(C)C)nc5CC(C)C4)C3)c12 (stereo partly drawn) [Example 422]" meas_value=72
compound="CCc1c(F)ccc2cc(O)cc(N3CCc4c(nc(OC[C@@]56CCCN5C[C@H](F)C6)nc4N4CCCn5nc(C(=O)N6CCN(C)CC6)cc5C4)C3)c12 [Example 402]" meas_value=100
compound="CCc1c(F)ccc2cc(O)cc(N3CCc4c(nc(OC[C@@]56CCCN5C[C@H](F)C6)nc4N4CCCn5nc(C(=O)N(C)C6CC6)cc5C4)C3)c12 [Example 383]" meas_value=99
compound="CCc1c(F)ccc2cc(O)cc(N3CCc4c(nc(OC[C@@]56CCCN5C[C@H](F)C6)nc4N4CCCn5nc(C(=O)N(C)C)nc5C4)C3)c12 [Example 403]" meas_value=100
compound="CCc1c(F)ccc2cc(O)cc(N3CCc4c(nc(OC[C@@]56CCCN5C[C@H](F)C6)nc4N4CCCn5nc(C(=O)N6CC7COCC6C7)cc5C4)C3)c12 (stereo partly drawn) [Example 306]" meas_value=99
compound="CCc1c(F)ccc2cc(O)cc(N3CCc4c(nc(OC[C@@]56CCCN5C[C@H](F)C6)nc4N4CCCn5nc(C(=O)N6C[C@H](C)N[C@@H](C)C6)cc5C4)C3)c12 [Example 282]" meas_value=99
compound="CCc1c(F)ccc2cc(O)cc(N3CCc4c(nc(OC[C@@]56CCCN5C[C@H](F)C6)nc4N4CCCn5nc(NC)c(OC)c5C4)C3)c12 [Example 393]" meas_value=83
compound="CCc1c(F)ccc2cc(O)cc(N3CCc4c(nc(OC[C@@]56CCCN5C[C@H](F)C6)nc4N4CCCn5nc(C(=O)N6CC7CC6C7)cc5C4)C3)c12 [Example 342]" meas_value=99
compound="CCc1c(F)ccc2cc(O)cc(N3CCc4c(nc(OC[C@@]56CCCN5C[C@H](F)C6)nc4N4CCCOCC4)C3)c12 [Example 420]" meas_value=98
compound="CCc1c(F)ccc2cc(O)cc(N3CCc4c(nc(OC[C@@]56CCCN5C[C@H](F)C6)nc4N4CCCn5nc(C(=O)N6C7CCCC6CC7)cc5C4)C3)c12 [Example 341]" meas_value=97
compound="CCc1c(F)ccc2cc(O)cc(N3CCc4c(nc(OC[C@@]56CCCN5C[C@H](F)C6)nc4N4CCCn5nc(C(=O)NC)c(Cl)c5C4)C3)c12 [Example 388]" meas_value=100
compound="CCc1c(F)ccc2cc(O)cc(N3CCc4c(nc(OC[C@@]56CCCN5C[C@H](F)C6)nc4N4CCCn5nc6c(c5C4)CCCN6)C3)c12 [Example 392]" meas_value=78
compound="CCc1c(F)ccc2cc(O)cc(N3CCc4c(nc(OC[C@@]56CCCN5C[C@H](F)C6)nc4N4CCCn5nc(C(=O)N(C)C6CCC6)cc5C4)C3)c12 [Example 385]" meas_value=98
compound="CCc1c(F)ccc2cc(O)cc(N3CCc4c(nc(OC[C@@]56CCCN5C[C@H](F)C6)nc4N4CCCn5nc(C(=O)N(CC)CC)cc5C4)C3)c12 [Example 390]" meas_value=99
compound="CCc1c(F)ccc2cc(O)cc(N3CCc4c(nc(OC[C@@]56CCCN5C[C@H](F)C6)nc4N4CCCn5nc(C(=O)NC)c(C)c5C4)C3)c12 [Example 380]" meas_value=99
compound="CCc1c(F)ccc2cc(O)cc(N3CCc4c(nc(OC[C@@]56CCCN5C[C@H](F)C6)nc4N4CCCn5nc(C(=O)NC(C)C)c(Cl)c5C4)C3)c12 [Example 386]" meas_value=99
compound="CCc1c(F)ccc2cc(O)cc(N3CCc4c(nc(OC[C@@]56CCCN5C[C@H](F)C6)nc4N4CCCn5nc(C(=O)N(C)CCOCCOC)cc5C4)C3)c12 [Example 373]" meas_value=99
compound="CCc1c(F)ccc2cc(O)cc(N3CCc4c(nc(OC[C@@]56CCCN5C[C@H](F)C6)nc4N4CCCn5nc(NC)c(F)c5C4)C3)c12 [Example 406]" meas_value=87
